# Tested on: HOP-92 NSCLC
# assayExplanation: NCI tumour cell line growth inhibition, 48 h
Each entry below carries its recorded TGI.

| molecule | TGI |
| --- | --- |
| O=C(OCc1ccccc1[N+](=O)[O-])N1c2ccccc2[C@@]23O[C@]24CCC[C@H]3C#C/C=C\C#C[C@H]14 | > 100 µM |
| COC(=O)C1=C(O)C(C(=O)OC)[C@@]2(O)[C@@H](C(=O)OC)C(c3ccccc3C(F)(F)F)C[C@@H]1[C@@H]2C(=O)OC (stereo not given in full) | 37.9 µM |
| CO/C=C(/C(=O)OC)c1ccccc1[C@H]1C[C@@H]1c1ccc(OC)cc1 | > 100 µM |
| Cc1cc(C)c2nc(Nc3nc(C)c(C)c(=O)[nH]3)nc(C)c2c1 | 9.11 µM |
| CCSc1sc(-c2ccc(C)cc2)nc1[P+](c1ccccc1)(c1ccccc1)c1ccccc1 | 0.593 µM |
| CN(C)CCNc1ccccn1 | > 100 µM |
| COC(=O)CC[C@@H](NC(=O)C(C)NC(=O)COC1C(O)C(COC(=O)CCCCCCCCCCNC(=O)c2ccc([N+](=O)[O-])c3[nH]c4cc(Br)ccc4c(=O)c23)OC(OCc2ccccc2)C1NC(C)=O)C(N)=O (stereo not given in full) | > 100 µM |
| CC(=O)NC1=NC(=O)/C(=C/c2ccc(Cl)cc2Cl)N1C | > 100 µM |
| CC(C)OCC(O)COc1cc(=O)oc2ccccc12 (stereo not given) | > 100 µM |
| NNC(=S)N/N=C(\c1nc2ccc(Cl)cc2[nH]c1=O)C(O)c1ccc(Cl)cc1Cl (stereo not given) | > 100 µM |

====

# Tested on: HCC-2998 colon
# assayExplanation: NCI tumour cell line growth inhibition, 48 h; in the data active means GI50 below about 0.43 µM; inactive means the rest
Where a SMILES comes first, the peptide text is derived from it. [ ]: non-standard residue; d: D form. The star is where a group is joined. ξ: configuration not given here. 4Abz = Nc1ccc(C(=O)O)cc1; ξL = CC(C)CC(N)C(=O)O; NHOH = ON*
Classes used: active, inactive

| compound | classification |
| --- | --- |
| CC(C)CC(NC(=O)[C@@H]1CCCN1C(=O)CNC(=O)c1ccc(N)cc1)C(=O)N[C@H](C)C(=O)NO (stereo partly drawn) (H-[4Abz]GP[ξL][dA]-{NHOH}) | inactive |
| CN1CCN(c2nc(NCCNc3ccnc4cc(Cl)ccc34)c3ccccc3n2)CC1 | inactive |
| C=CC[n+]1c(/C=C2\Sc3ccccc3N2C)sc(-c2ccccc2)c1-c1ccccc1 | active |
| CC(=N\O)/C(C)=N/O.CC(=N\O)/C(C)=N/O.[Pd] | inactive |
| N#CC1=C(N)Oc2c(sc3c(F)cccc23)C1c1ccc(Cl)cc1 (stereo not drawn) | inactive |
| COc1ccc(CNCCN2C(=O)c3ccc4c5c(ccc(c35)C2=O)C(=O)N(CCNCc2ccc(OC)cc2)C4=O)cc1 | active |
| COc1cc(Oc2cnc3cc(N)cc(N)c3n2)cc(OC)c1OC | inactive |
| Nc1ccc(Cl)cc1.Nc1ccc(Cl)cc1.Nc1ccc(Cl)cc1.O=C([O-])C(=O)[O-].O=C([O-])C(=O)[O-].[H+].[Ru+5] | inactive |

====

# Tested on: HT29 colon
# assayExplanation: NCI tumour cell line growth inhibition, 48 h

| compound | TGI |
| --- | --- |
| C=C1c2c(C)nn(-c3ccccc3)c2N(C)C23C[C@@H]1C1(C)c4c(C)nn(-c5ccccc5)c4N(C)C(C)(C[C@H]12)C3 (stereo partly drawn) | > 100 µM |
| O=C1CCc2cc([N+](=O)[O-])ccc2O1 | > 100 µM |
| CC(=O)OC1CC[C@@]2(C)C(CC(OC3OC(CO)C(O)C(O)C3O)[C@]3(C)C2CCC24CC23CC[C@H]4C(C)CC(O)[C@@H](O)C(C)(C)O)C1(C)C (stereo partly drawn) | > 50 µM |

====

# System: UACC-257 melanoma
# assayExplanation: NCI tumour cell line growth inhibition, 48 h
Where a SMILES comes first, the peptide text is derived from it. The star is where a group is joined. Boc = CC(C)(C)OC(=O)*; OBn = c1ccc(CO*)cc1; Bn = c1ccc(C*)cc1

| compound | TGI |
| --- | --- |
| NCCCCN(CCCN)C(=O)OCc1ccccc1 | > 100 µM |
| CN(C)CCNc1ccccn1 | > 100 µM |
| O=C(NCCc1ccccc1)C(c1csc2ccccc12)N(C(=O)CCl)c1ccc(-c2cnco2)cc1 (stereo not given) | 3.17 µM |
| COc1ccc(NC(=O)c2cc(NC(=O)/C=C/c3ccccc3)c(OC)c(OC)c2)cc1 | > 100 µM |
| O=C(CC1Sc2ccccc2NC1=O)Nc1ccc([N+](=O)[O-])cc1[N+](=O)[O-] (stereo not given) | 46.2 µM |
| Cc1cc(S(=O)(=O)Nc2nc(N)n(-c3ccccc3)n2)c(S)cc1Cl | > 100 µM |
| c1ccc(C[P+]2(c3ccccc3)CCCCC2)cc1 | > 100 µM |
| CC(CC(C)[C@H]1CCC2[C@H]3C(CC[C@@]21C)[C@@]1(C)CCC(O)C[C@H]1C[C@@H]3O)C(=O)O (stereo not given in full) | > 100 µM |
| CC1(C)OC2C(CO)OC(/N=C(\NC#N)Oc3ccccc3)C2O1 (stereo not given) | > 100 µM |
| N#CC1=C(N)NC(=S)NC1c1ccc(-c2ccc(-c3nc4ccccc4s3)cc2)o1 (stereo not given) | > 50 µM |
| CC([C@H]1CCC2C3CCC4C(=O)C(NC=O)=CC[C@]4(C)C3CC[C@@]21C)N(C)C (stereo not given in full) | 10.4 µM |
| N#CC1(Cc2ccccc2Cl)c2ccccc2C=CN1C(=O)c1ccccc1 (stereo not given) | > 100 µM |
| CC(C)CC(NC(=O)C(CCC(=O)OCc1ccccc1)NC(=O)OC(C)(C)C)C(=O)NC(COCc1ccccc1)C(=O)NC(Cc1ccccc1)C(=O)O (stereo not given) (Boc-E(OBn)LS(Bn)F-OH; configuration not given here) | > 100 µM |
| C/C(=N\NC(=S)N/N=C(\C)c1ccccn1)c1ccccn1 | > 100 µM |
| NS(=O)(=O)OC[C@H]1O[C@@H](n2cnc3c(N[C@H]4CCc5ccccc54)ncnc32)[C@H](O)[C@@H]1O | 0.577 µM |
| CC(C)(C)NC(=O)C12C3C4C1C1C2C3C41I (stereo not given) | > 100 µM |
| CC(=O)NC1=NC(=O)/C(=C/c2ccc(Cl)cc2Cl)N1C | > 100 µM |
| Cc1cccc2c1NC(c1c(C)[nH]c3ccccc13)C2 (stereo not given) | > 100 µM |
| C=CC[n+]1c(/C=C2\Sc3ccccc3N2C)sc(-c2ccccc2)c1-c1ccccc1 | 0.737 µM |
| Cc1cc([C@H](C#N)c2nc3ccccc3s2)nc(Cl)n1 | 22.4 µM |

====

# TGI per record follows
# Test system: NCI-H460 lung
# assayExplanation: NCI tumour cell line growth inhibition, 48 h

| compound | TGI |
| --- | --- |
| O=C(O)C(=O)/C=C\c1ccc(Cl)cc1 | > 100 µM |
| O=C(O)/C=C/C(=O)Nc1cccc2c1-c1ccccc1C2=O | > 35.5 µM |
| CCOC(=O)C(NC(=O)Nc1ccccc1)(Nc1cccc(Cl)c1)C(F)(F)F (centres undefined) | > 100 µM |
| CS(=O)(=O)c1ccc(C2=C(c3ccccc3)C(=O)OC2)cc1 | > 100 µM |
| CCNc1nc2ccccc2nc1NCC | > 100 µM |
| Cc1cc([C@H](C#N)c2nc3ccccc3s2)nc(Cl)n1 | 15.3 µM |
| Brc1ccc2c(c1)[C@H]1CCc3c([nH]c4ccccc34)[C@H]1N2 | 24.8 µM |
| C(=C/c1ccc2nc(-c3ccc(/C=C/C=N/NC4=NCCCN4)cc3)cn2c1)/C=N/NC1=NCCCN1 | 73.2 µM |
| COC(=O)[C@@]12CC3CN(Cc4c1[nH]c1ccccc41)C2CC3=O | > 100 µM |
| C/C(=C/CC[C@](C)(OC1OC(CO)C(O)C(O)C1OC1OC(C)C(O)C(O)C1O)[C@H]1CC[C@]2(C)[C@@H]1CC[C@@H]1[C@@]3(C)CC[C@H](O)C(C)(C)[C@@H]3C[C@H](O)[C@]12C)CO (some centres undefined) | > 100 µM |
| O=C(/C=C/c1ccccc1O)CC(=O)/C=C/c1ccccc1O | 30.7 µM |
| COC12OC3(C4OC41)C(C(=O)O[C@H]3CO[Si](C)(C)C(C)(C)C)C2S(=O)(=O)c1ccccc1 (some centres undefined) | > 100 µM |
| O=C1/C=C(/c2ccc(O)cc2)[C@H](O)Cc2ccc(OC3OC(CO)C(O)C(O)C3O)cc2O1 (some centres undefined) (tested in a mixture with another compound) | > 100 µM |
| O=C(CC1Sc2ccccc2NC1=O)Nc1ccc([N+](=O)[O-])cc1[N+](=O)[O-] (centres undefined) | 59.5 µM |
| NC(=O)NC1=NCCC(=O)N1CCc1c[nH]c2ccccc12 | 39.5 µM |
| c1cc(C2O[C@H]3CCCN3[C@@H]2c2ccncc2)ccn1 (some centres undefined) | > 100 µM |
| COc1cc(CNc2nc3cc(C(F)(F)F)ccc3nc2C(=O)O)cc(OC)c1OC | 82 µM |
| COc1ccc(/C=N/N=C(N)N)c(C(=O)O)c1OC | > 100 µM |
| COC(=O)C1=C(O)C(C(=O)OC)[C@@]2(O)[C@@H](C(=O)OC)C(c3ccc(OC(=O)C(Cc4ccccc4)NC(C)=O)cc3)C[C@@H]1[C@@H]2C(=O)OC (some centres undefined) | > 100 µM |
